INHIBITION reference
test system: Plasmodium falciparum; experiment: Screen against P. falciparum Asexual Blood Stage (ABS), at 5uM; assay type: functional, Dd2; settings: tested at 5 uM
In all, about 65,000 compounds went through this assay and about 2,100 (3.2%) showed an effect of 50% or more. The median lay at about -52%. The full list was thinned out, with strong results kept by preference.
Give the value, in units of %, as a plain number.

Would you please look over these solved cases?
[
  {
    "compound": "Cn1ccnc1C(O)(CCNCc1ccco1)C(F)(F)F (stereo unspecified)",
    "quantityUnit": "%",
    "INHIBITION": 64.6
  },
  {
    "compound": "CN1CC2(CCC1=O)CCN(CC[C@@H](O)c1ccccc1)CC2",
    "quantityUnit": "%",
    "INHIBITION": -14
  },
  {
    "compound": "CCc1ncc(CN2C[C@@H]3C[C@@H](O)CN3C[C@@H]2Cc2ccccc2)cn1",
    "quantityUnit": "%",
    "INHIBITION": -55
  },
  {
    "compound": "CC(C(=O)NCc1ccco1)N1CCN(Cc2nccn2C)CC1 (stereo unspecified)",
    "quantityUnit": "%",
    "INHIBITION": -35.6
  }
]

Then there is this compound:
Looking for the measured INHIBITION of O[C@@H]1C[C@H]2CN(Cc3ccccc3)[C@H](Cc3ccccc3)CN2C1 , can you help?
69.1

---

test system: Plasmodium falciparum; assay: Screen against P. falciparum Asexual Blood Stage (ABS), at 5uM; format: functional, Dd2; conditions: tested at 5 uM
Screen size: about 65,000 compounds; about 2,100 (3.2%) showed an effect of 50% or more. The median lay at about -52%. Shown is part of a subset that was picked to be rich in strong results.
readout: INHIBITION (%)
Number in %, nothing else.

Sample answers from the record:
[
  {
    "molecule": "CCC(Nc1nc(CCN)nc2ccccc12)c1cccs1 (centres undefined)",
    "systemName": "Plasmodium falciparum",
    "assayValue": 63.5
  },
  {
    "molecule": "O=C(CCc1nc(-c2ccsc2)no1)NCC1CCN(C2CC2)C1 (centres undefined)",
    "systemName": "Plasmodium falciparum",
    "assayValue": 2.06
  },
  {
    "molecule": "CC(C)OCCCN1CCCC(c2nc3ccccc3n2C(C)C)C1 (centres undefined)",
    "systemName": "Plasmodium falciparum",
    "assayValue": 56
  },
  {
    "molecule": "Cc1ccc(OCC(=O)Nc2ccc(S(C)(=O)=O)cc2)cc1C",
    "systemName": "Plasmodium falciparum",
    "assayValue": -89.1
  },
  {
    "molecule": "Cc1ocnc1C(=O)N1CCCC1c1ccc(C(=O)N2CCSCC2)s1 (centres undefined)",
    "systemName": "Plasmodium falciparum",
    "assayValue": -154
  }
]

Please state recorded INHIBITION (tested on Plasmodium falciparum) of CC(C)n1c(C2CCCN(CCS(C)(=O)=O)C2)nc2ccccc21 (centres undefined)
-69.9

CC(C)n1c(C2CCCN(CC(N)=O)C2)nc2ccccc21 (centres undefined) , same question.
-23.5

Query CC(C)(C)c1nnnn1CC(=O)N(CCC#N)c1ccccc1 next
-55.4
